src = patent US20220119375A1

# test-name: Pharmacokinetic test in rat
# Format: in vivo
# details: male, SD, plasma, IV 2 mg/kg, read-out: T½ (converted)
measurement-name: half-life (h)

CNCC[C@H](Oc1cccc2ccoc12)c1cccs1; 2.97
CNCC[C@H](Oc1cccc2ccccc12)c1cccs1 [Duloxetine (S configuration), Duloxetine]; 1.77

====

# target: UniProtKB O75762
# Sequence (O75762 whole entry): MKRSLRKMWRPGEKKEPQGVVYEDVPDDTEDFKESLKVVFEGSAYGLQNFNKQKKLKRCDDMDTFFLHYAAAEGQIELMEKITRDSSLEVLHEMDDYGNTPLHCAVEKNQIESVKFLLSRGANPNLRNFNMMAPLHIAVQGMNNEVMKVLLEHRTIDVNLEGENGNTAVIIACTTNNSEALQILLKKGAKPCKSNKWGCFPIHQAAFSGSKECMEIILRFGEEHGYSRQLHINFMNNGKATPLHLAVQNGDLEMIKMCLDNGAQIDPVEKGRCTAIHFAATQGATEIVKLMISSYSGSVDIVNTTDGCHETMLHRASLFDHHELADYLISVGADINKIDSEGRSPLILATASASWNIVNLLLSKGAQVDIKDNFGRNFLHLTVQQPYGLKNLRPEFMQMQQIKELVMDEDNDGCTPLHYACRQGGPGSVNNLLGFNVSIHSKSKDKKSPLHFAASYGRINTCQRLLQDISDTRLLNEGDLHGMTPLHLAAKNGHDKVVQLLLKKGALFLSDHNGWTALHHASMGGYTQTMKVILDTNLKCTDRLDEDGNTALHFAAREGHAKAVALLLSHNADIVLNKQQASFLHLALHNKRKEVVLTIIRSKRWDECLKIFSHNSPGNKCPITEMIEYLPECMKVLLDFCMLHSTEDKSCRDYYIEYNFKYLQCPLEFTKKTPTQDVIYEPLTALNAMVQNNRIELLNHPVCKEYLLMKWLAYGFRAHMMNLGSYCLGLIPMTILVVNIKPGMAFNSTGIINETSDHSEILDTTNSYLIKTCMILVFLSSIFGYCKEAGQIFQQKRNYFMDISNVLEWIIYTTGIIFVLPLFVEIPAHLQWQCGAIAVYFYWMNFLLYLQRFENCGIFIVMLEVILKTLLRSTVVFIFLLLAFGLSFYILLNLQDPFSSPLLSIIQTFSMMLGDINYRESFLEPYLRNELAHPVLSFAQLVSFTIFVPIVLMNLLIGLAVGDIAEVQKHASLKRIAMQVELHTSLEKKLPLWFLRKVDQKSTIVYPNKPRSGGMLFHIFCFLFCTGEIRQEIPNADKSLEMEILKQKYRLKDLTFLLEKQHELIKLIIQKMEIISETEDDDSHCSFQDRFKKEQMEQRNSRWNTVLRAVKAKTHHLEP
# test-name: manual patch clamp detection of TRPA1 inhibitory activity
# details: HEK293 stably expressing human TRPA1, 100 μM AITC, +100 mV
measurement-name: IC50 (µM)

CNCC[C@H](Oc1cccc2c1CCC2)c1cccs1 [Compound IC-10]; 1.12
CNCC[C@H](Oc1cccc2ccccc12)c1cccs1 [Duloxetine (S configuration), Duloxetine]; 4.36
CNCC[C@H](Oc1cccc2ccoc12)c1cccs1 [Compound IC-1]; 0.43

====

# Test system: ICR mice, acetic acid writhing pain model
# test-name: mice acetic acid writhing pain model
# Format: in vivo, mouse
# details: 10 mg/kg by gavage, within 30 min; saline group 49 times
Measured number of appearance of writhing reaction, listed per entry for reference.
measurement-name: number of appearance of writhing reaction (times)

COc1ccc2c(c1)c(CC(=O)O)c(C)n2C(=O)c1ccc(Cl)cc1 [indomethacin, reference compound]; 28
CN1[C@H]2C[C@H](OC(=O)[C@H](CO)c3ccccc3)C[C@@H]1[C@@H](O)C2 [anisodamine, reference compound]; 27
CNCC[C@H](Oc1cccc2ccccc12)c1cccs1 [Duloxetine (S configuration), Duloxetine]; 27
CNCC[C@H](Oc1cccc2ccoc12)c1cccs1; 17

====

Below, each entry is listed with its recorded bioavailability.
# test-name: Pharmacokinetic test in rat
# Assay type: in vivo
# details: male, SD, plasma, 10 mg/kg, oral, calculated on AUC(0-∞)
measurement-name: bioavailability (%)

CNCC[C@H](Oc1cccc2ccoc12)c1cccs1; 179
CNCC[C@H](Oc1cccc2ccccc12)c1cccs1 [Duloxetine (S configuration), Duloxetine]; 9.9

====

# target: TRPA1 (Mus musculus, UniProt Q8BLA8)
# Construct: expressed in transfected cells; host or cells: HEK293
# Sequence (Q8BLA8 whole entry): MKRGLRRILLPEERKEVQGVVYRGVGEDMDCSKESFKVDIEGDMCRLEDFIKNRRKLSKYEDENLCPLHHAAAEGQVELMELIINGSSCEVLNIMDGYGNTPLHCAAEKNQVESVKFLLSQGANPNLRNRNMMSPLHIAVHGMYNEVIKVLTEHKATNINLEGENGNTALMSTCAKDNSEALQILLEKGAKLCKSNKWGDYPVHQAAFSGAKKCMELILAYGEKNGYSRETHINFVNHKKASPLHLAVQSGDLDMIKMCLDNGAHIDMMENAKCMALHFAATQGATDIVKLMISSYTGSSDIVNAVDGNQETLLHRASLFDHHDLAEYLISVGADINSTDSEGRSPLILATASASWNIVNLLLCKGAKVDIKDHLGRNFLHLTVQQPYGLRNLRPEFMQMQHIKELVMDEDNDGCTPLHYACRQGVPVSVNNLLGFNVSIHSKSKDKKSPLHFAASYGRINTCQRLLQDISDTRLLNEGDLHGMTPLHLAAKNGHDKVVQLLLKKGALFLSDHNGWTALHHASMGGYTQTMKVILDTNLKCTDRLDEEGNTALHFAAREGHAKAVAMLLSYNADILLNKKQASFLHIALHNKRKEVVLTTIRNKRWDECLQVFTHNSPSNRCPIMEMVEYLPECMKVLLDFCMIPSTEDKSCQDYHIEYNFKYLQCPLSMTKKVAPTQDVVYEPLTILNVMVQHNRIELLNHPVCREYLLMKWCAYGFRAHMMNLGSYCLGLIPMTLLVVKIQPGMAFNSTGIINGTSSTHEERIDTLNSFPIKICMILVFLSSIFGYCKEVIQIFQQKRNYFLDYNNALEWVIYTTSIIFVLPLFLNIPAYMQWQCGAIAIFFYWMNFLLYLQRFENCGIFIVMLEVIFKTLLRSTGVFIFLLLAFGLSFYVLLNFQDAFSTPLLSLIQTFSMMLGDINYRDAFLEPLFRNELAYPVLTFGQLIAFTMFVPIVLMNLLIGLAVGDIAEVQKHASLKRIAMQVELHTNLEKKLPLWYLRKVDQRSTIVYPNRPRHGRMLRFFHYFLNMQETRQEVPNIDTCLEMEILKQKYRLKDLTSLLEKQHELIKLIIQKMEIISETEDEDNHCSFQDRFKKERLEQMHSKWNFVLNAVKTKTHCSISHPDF
# test-name: IonWorks Barracuda (IWB) automated patch clamp detection of TRPA1 inhibitory activity
# Type: cell-based, mouse (mTRPA1)
# details: automated patch clamp (IWB); read-out: IC50 on TRPA1
IC50 values, listed per item
measurement-name: IC50

CNCC[C@H](Oc1cccc2ccoc12)c1ccoc1; < 5 µM
NCC[C@H](Oc1cccc2ccoc12)c1cccs1; < 5 µM
NCC[C@H](Oc1cccc2ccoc12)c1ccoc1; < 5 µM
CNCC[C@H](Oc1cccc2ccoc12)c1ccco1; < 5 µM
CNCC[C@H](Oc1cccc2ccccc12)c1cccs1 [Duloxetine (R configuration), Duloxetine, reference compound]; 48.5 µM
CN(C)CC[C@H](Oc1cccc2ccoc12)c1cccs1; < 5 µM
CNCC[C@H](Oc1cccc2ccccc12)c1cccs1 [Duloxetine (S configuration), Duloxetine]; 24.7 µM

====

# test-name: Pharmacokinetic test in rat
# Format: in vivo
# details: male, SD, plasma, PO 10 mg/kg, read-out: T½ (converted)
measurement-name: half-life (h)

CNCC[C@H](Oc1cccc2ccccc12)c1cccs1 [Duloxetine (S configuration), Duloxetine]; 1.81
CNCC[C@H](Oc1cccc2ccoc12)c1cccs1; 5.69

====

# test-name: Pharmacokinetic test in rat
# Type: in vivo
# details: male, SD, plasma, PO 10 mg/kg
Measured AUC(0-inf), listed per entry.
measurement-name: AUC(0-inf) (ng·h/mL)

CNCC[C@H](Oc1cccc2ccccc12)c1cccs1 [Duloxetine (S configuration), Duloxetine]; 222
CNCC[C@H](Oc1cccc2ccoc12)c1cccs1 [Compound IC-1]; 4020

====

# test-name: Pharmacokinetic test in rat
# Type: in vivo
# details: male, SD, plasma, IV 2 mg/kg
# Description: A certain amount of sample was weighed and dissolved in deionized water to prepare 1 mg/mL of solution. Male SD rats were used as test animals. The dose of single intravenous (IV) injection was 2 mg/kg, and the dose of oral (PO) administration was 10 mg/kg. Each group had three rats. The rats in oral group were fasted for 10-14 hours before administration, and were fed 4 hours after administration. […]
measurement-name: Cmax

CNCC[C@H](Oc1cccc2ccccc12)c1cccs1 [Duloxetine (S configuration), Duloxetine]; 177 ng/mL
CNCC[C@H](Oc1cccc2ccoc12)c1cccs1 [Compound IC-1]; 170 ng/mL

====

Catalogue of IC50 readings, one per entry.
# target: TRPA1 (Mus musculus, UniProt Q8BLA8)
# Construct: expressed in transfected cells; host or cells: HEK293
# test-name: IonWorks Barracuda (IWB) automated patch clamp detection of TRPA1 inhibitory activity
# Format: cell-based, mouse (mTRPA1)
# details: automated patch clamp (IWB), HEK293 cells stably expressing TRPA1, AITC-induced current at +100 mV; read-out: IC50 (μM) on TRPA1 in the patch clamp detection test
measurement-name: IC50

CNCC[C@H](Oc1cccc2ccoc12)c1cccs1; 1 to 5 µM
CN(C)CC[C@H](Oc1cccc2ccoc12)c1cccs1; 1 to 5 µM
CNCC[C@H](Oc1cccc2c1CCC2)c1cccs1; 5 to 10 µM
NCC[C@H](Oc1cccc2ccoc12)c1ccsc1; 5 to 10 µM
CNCC[C@H](Oc1cccc2ccoc12)c1cnco1; 5 to 10 µM
CNCC[C@H](Oc1cccc2ccccc12)c1cccs1 [Duloxetine (R configuration), Duloxetine, reference compound]; 20 to 50 µM
NCC[C@H](Oc1cccc2ccoc12)c1ccco1; 1 to 5 µM
NCC[C@H](Oc1cccc2ccoc12)c1ccoc1; 1 to 5 µM
CNCC[C@H](Oc1cccc2ccoc12)c1ccco1; 1 to 5 µM
NCC[C@H](Oc1cccc2ccoc12)c1cccs1; 1 to 5 µM
CNCC[C@H](Oc1cccc2ccoc12)c1ccoc1; 1 to 5 µM
CNCC[C@H](Oc1cccc2ccoc12)c1ccsc1; 5 to 10 µM

====

# test-name: Pharmacokinetic test in rat
# Assay type: in vivo
# details: male, SD, plasma, PO 10 mg/kg
Recorded Cmax values for a group of molecules are listed next.
measurement-name: Cmax (ng/mL)

CNCC[C@H](Oc1cccc2ccccc12)c1cccs1 [Duloxetine (S configuration), Duloxetine]; 76
CNCC[C@H](Oc1cccc2ccoc12)c1cccs1 [Compound IC-1]; 266

====

# test-name: Pharmacokinetic test in rat
# Format: in vivo
# details: male, SD, plasma, po, 10 mg/kg, PO 10 mg/kg, read-out: Tmax
# Protocol: A certain amount of sample was weighed and dissolved in deionized water to prepare 1 mg/mL of solution. Male SD rats were used as test animals. The dose of single intravenous (IV) injection was 2 mg/kg, and the dose of oral (PO) administration was 10 mg/kg. Each group had three rats. The rats in oral group were fasted for 10-14 hours before administration, and were fed 4 hours after administration. […]
measurement-name: Tmax (min)

CNCC[C@H](Oc1cccc2ccccc12)c1cccs1 [Duloxetine (S configuration), Duloxetine]; 49.8

====

# test-name: Pharmacokinetic test in rat
# Assay type: in vivo
# details: male, SD, plasma, iv, 2 mg/kg, IV 2 mg/kg, read-out: Tmax
measurement-name: Tmax (min)

CNCC[C@H](Oc1cccc2ccccc12)c1cccs1 [Duloxetine (S configuration), Duloxetine]; 4.98

====

# test-name: Pharmacokinetic test in rat
# Type: in vivo
# details: male, SD, plasma, PO 10 mg/kg, read-out: Tmax
measurement-name: Tmax (h)

CNCC[C@H](Oc1cccc2ccoc12)c1cccs1; 3

====

# test-name: Pharmacokinetic test in rat
# Assay type: in vivo
# details: male, SD, plasma, IV 2 mg/kg, read-out: Tmax
measurement-name: Tmax

CNCC[C@H](Oc1cccc2ccoc12)c1cccs1; 4.98 min
